# Test system: OVCAR-5 ovarian
# measurement-protocol: NCI-60 one-dose screen, 48 h
# condition-summary: 10 µM
This is part of a sample that, as a whole, favours compounds with a hit. Of some 83,000 tested, about 20% had one in any assay. Active and inactive are the calls of the source. How the source made its calls: active means growth percent below 10; inactive means the rest.
Classes used: True = active, False = inactive

compound=O=C(/C=C/c1cccnc1)c1ccccc1 group_label=False
compound="CCCCCCCCCCCCCCCCCCOCC(COP(=O)([O-])OCC[N+](C)(C)C)OC (stereo not given)" group_label=True
compound=CC1=CC(C)=Nc2ccc(Cl)cc2N1 group_label=False
compound="CSC1SCC2C(=O)N(C)C(C(C)C)C(=O)OCC(NC(=O)c3cnc4ccccc4n3)C(=O)NC(C)C(=O)N(C)C1C(=O)N(C)C(C(C)C)C(=O)OCC(NC(=O)c1cnc3ccccc3n1)C(=O)NC(C)C(=O)N2C (stereo not given)" group_label=True
compound=Oc1ccc(N=Nc2ccccn2)c(O)c1 group_label=False
compound=O=C1NC(=O)c2cc([N+](=O)[O-])ccc21 group_label=False
compound=CCO/C=C1\SC(=S)N(c2cccc(O)c2)C1=O group_label=False
compound="COc1cccc2c1C(=O)c1c(O)c3c(c(O)c1C2=O)C[C@@](O)(C(=O)CO)C[C@@H]3OC1CC(N)C(O)C(C)O1 (stereo not given in full)" group_label=True
compound=CCN1/C(=C/C=C/C=C/c2sc3ccccc3[n+]2CC)Sc2ccccc21 group_label=True
compound="CCCCCC(C)c1ccc(O)c(C)c1 (stereo not given)" group_label=False
compound=Cc1nc(N=C(N)N)nc2ccc3ccccc3c12 group_label=False
compound="Cc1cc(NS(=O)(=O)c2ccc(N=Nc3cc(N=Nc4ccc(S(=O)(=O)Nc5cc(C)nc(C)n5)cc4)c4c(NC(=O)C(Cl)Cl)cccc4c3OC(=O)C(Cl)Cl)cc2)nc(C)n1 (tested in a mixture with another compound)" group_label=False
compound="CS(=O)(=O)OC1CC(n2ccc(=O)[nH]c2=O)OC1COC(c1ccccc1)(c1ccccc1)c1ccccc1 (stereo not given)" group_label=False
compound=CCCCCCCCCCCC[N+](C)(C)Cc1ccccc1 group_label=False
compound=CC(=O)Nc1cc(C)ccc1C group_label=False
compound=NNc1c2ccccc2nc2ccccc12 group_label=False
compound=CCCCCCCCCCSC(=N)N group_label=False
compound="OCC(O)C(O)C(O)C(/C=N/Nc1ccccc1)=N/Nc1ccccc1 (stereo not given)" group_label=False
compound=O=C1C=CC(=CC=C2C=CN(CCCCCCCCCCCO)C=C2)C=C1 group_label=False
compound=Cc1cc(O)c(C(C)C)cc1Cl group_label=False

====

# Tested on: MDA-MB-231 breast
# measurement-protocol: NCI-60 one-dose screen, 48 h (100 = growth as untreated, 0 = no growth, -100 = all killed)
# condition-summary: 10 µM
This is part of a sample that, as a whole, favours compounds with a hit. Of some 83,000 tested, about 20% had one in any assay. Where a SMILES comes first, the peptide text is derived from it. [ ]: non-standard residue; d: D form. ξ: configuration not given here. ξV = CC(C)C(N)C(=O)O
assay-metric: growth (%)

molecule="CC(C)C(NC(=O)CN)C(=O)O (stereo unspecified) (H-Gly-[ξV]-OH)" assay_metric=growth recorded_result=106
molecule=CC(C)(C)CC(C)(C)c1ccc(OCCO)cc1 assay_metric=growth recorded_result=106
molecule="OCC(O)C(O)C(O)C(/C=N/Nc1ccccc1)=N/Nc1ccccc1 (stereo unspecified)" assay_metric=growth recorded_result=79.7
molecule=O=C(/C=C/c1cccnc1)c1ccccc1 assay_metric=growth recorded_result=116
molecule="COC(=O)C1C(O)C(C)C(O)C(C)C=C(C)C2=C3C(=C(C)C(=O)c4c(O)c(c(C)c(OC(C)=O)c43)NC(=O)C(C)=C/C=C\\C(C)C(O)C(C)C1O)OCO2 (stereo unspecified)" assay_metric=growth recorded_result=105
molecule=Cc1nc(N=C(N)N)nc2ccc3ccccc3c12 assay_metric=growth recorded_result=-0.868
molecule=O=C1NC(=O)c2cc([N+](=O)[O-])ccc21 assay_metric=growth recorded_result=107
molecule=CC(=O)Nc1cc(C)ccc1C assay_metric=growth recorded_result=112
molecule="OC(CN1CCCC2CCCCC21)c1cc2ccccc2c2ccccc12 (stereo unspecified)" assay_metric=growth recorded_result=-11.2
molecule="O=c1ccn(C2CC(O)C(COC(c3ccccc3)(c3ccccc3)c3ccccc3)O2)c(=O)[nH]1 (stereo unspecified)" assay_metric=growth recorded_result=73.5
molecule=N=S(c1ccccc1[N+](=O)[O-])c1ccccc1[N+](=O)[O-] assay_metric=growth recorded_result=91.4

====

# Test system: HS 578T breast
# measurement-protocol: NCI-60 one-dose screen, 48 h (100 = growth as untreated, 0 = no growth, -100 = all killed)
# condition-summary: 10 µM
Compounds without any hit were thinned out: in the full panel of roughly 83,000, 20% have a hit. Active and inactive are the calls of the source. The calls were made as follows: active = growth percent below 10; inactive = the rest.
growth: recorded values
assay-metric: growth

compound="CCN(CC)c1ccc(NC(C(=O)c2ccccc2)c2ccccc2)cc1 (stereo not given)" recorded_result="46.1% (inactive)"
compound=O=C1C=CC(=CC=C2C=CN(CCCCCCCCCCCO)C=C2)C=C1 recorded_result="35.6% (inactive)"
compound="COC1OCC(O)C(O)C1O (stereo not given)" recorded_result="98.9% (inactive)"
compound="CSC1SCC2C(=O)N(C)C(C(C)C)C(=O)OCC(NC(=O)c3cnc4ccccc4n3)C(=O)NC(C)C(=O)N(C)C1C(=O)N(C)C(C(C)C)C(=O)OCC(NC(=O)c1cnc3ccccc3n1)C(=O)NC(C)C(=O)N2C (stereo not given)" recorded_result="-60.8% (active)"
compound=CCCCCCCCCCSC(=N)N recorded_result="81.1% (inactive)"

====

# System: MCF7 breast
# measurement-protocol: NCI-60 one-dose screen, 48 h
# condition-summary: 10 µM
Compounds without any hit were thinned out: in the full panel of roughly 83,000, 20% have a hit. The source made the active and inactive calls. How the source made its calls: active means growth percent below 10; inactive means the rest.
Classes used: yes = active, no = inactive

compound="O=c1ccn(C2CC(O)C(COC(c3ccccc3)(c3ccccc3)c3ccccc3)O2)c(=O)[nH]1 (stereo not given)" tested_on="MCF7 breast" group_label=no
compound=O=C1C=C(O)c2ccccc2C1=O.[Ag] tested_on="MCF7 breast" group_label=no
compound="CO[C@H](C(=O)[C@@H](O)[C@@H](C)O)[C@@H]1Cc2cc3cc(OC4CC(OC5CC(O)C(O)C(C)O5)C(O)C(C)O4)c(C)c(O)c3c(O)c2C(=O)[C@H]1OC1CC(OC2CC(OC3CC(C)(O)C(O)C(C)O3)C(O)C(C)O2)C(O)C(C)O1 (stereo not given in full)" tested_on="MCF7 breast" group_label=yes
compound=CC(=O)Nc1cc(C)ccc1C tested_on="MCF7 breast" group_label=no
compound="CC(=O)OCC(OC(C)=O)C(OC(C)=O)C(OC(C)=O)C(OC(C)=O)C(/C=N/Nc1ccccc1)=N/Nc1ccccc1 (stereo not given)" tested_on="MCF7 breast" group_label=no
compound=CCCCCCCCCCSC(=N)N tested_on="MCF7 breast" group_label=yes
compound=Cc1nc(N=C(N)N)nc2ccc3ccccc3c12 tested_on="MCF7 breast" group_label=yes
compound=CCC(C)(C)c1cc(O)c(C(C)(C)CC)cc1O tested_on="MCF7 breast" group_label=no
compound=O=C1NC(=O)c2cc([N+](=O)[O-])ccc21 tested_on="MCF7 breast" group_label=no
compound=O=[N+]([O-])C1=C(c2ccccc2)SC=C(c2ccccc2)S1 tested_on="MCF7 breast" group_label=no

====

# Test system: NCI-H226 lung
# measurement-protocol: NCI-60 one-dose screen, 48 h
# condition-summary: 10 µM
Compounds without any hit were thinned out: in the full panel of roughly 83,000, 20% have a hit. The source made the active and inactive calls. The calls were made as follows: active = growth percent below 10; inactive = the rest.
Classes used: true for active, false for inactive

compound=O=C1NC(=O)c2cc([N+](=O)[O-])ccc21 group_label=false
compound="COc1cccc2c1C(=O)c1c(O)c3c(c(O)c1C2=O)C[C@@](O)(C(=O)CO)C[C@@H]3OC1CC(N)C(O)C(C)O1 (stereo not given in full)" group_label=true
compound=O=[N+]([O-])C1=C(c2ccccc2)SC=C(c2ccccc2)S1 group_label=false
compound=NC1=C(Cl)C(=O)c2ccccc2C1=O group_label=false
compound="CC(=O)OCC(OC(C)=O)C(OC(C)=O)C(OC(C)=O)C(OC(C)=O)C(/C=N/Nc1ccccc1)=N/Nc1ccccc1 (stereo not given)" group_label=false

====

# System: MDA-MB-435 melanoma
# measurement-protocol: NCI-60 one-dose screen, 48 h (100 = growth as untreated, 0 = no growth, -100 = all killed)
# condition-summary: 10 µM
About 83,000 compounds went through this panel and 20% of them were active in at least one assay; those are over-represented in the sample as a whole.
growth: recorded values
assay-metric: growth (%)

molecule="OCC(O)C(O)C(O)C(/C=N/Nc1ccccc1)=N/Nc1ccccc1 (stereo not drawn)" assay_metric=growth recorded_result=78
molecule=CC(C)(C)CC(C)(C)c1ccc(OCCO)cc1 assay_metric=growth recorded_result=115
molecule=O=C(O)COc1ccc(OCC(=O)O)cc1 assay_metric=growth recorded_result=30.4
molecule=O=C(/C=C/c1ccccn1)c1ccccc1 assay_metric=growth recorded_result=52.4
molecule=Oc1ccc(N=Nc2ccccn2)c(O)c1 assay_metric=growth recorded_result=32.5
molecule=Cc1cc(O)c(C(C)C)cc1Cl assay_metric=growth recorded_result=99.2
molecule="CSC1SCC2C(=O)N(C)C(C(C)C)C(=O)OCC(NC(=O)c3cnc4ccccc4n3)C(=O)NC(C)C(=O)N(C)C1C(=O)N(C)C(C(C)C)C(=O)OCC(NC(=O)c1cnc3ccccc3n1)C(=O)NC(C)C(=O)N2C (stereo not drawn)" assay_metric=growth recorded_result=-82.8
molecule=CCN1/C(=C/C=C/C=C/c2sc3ccccc3[n+]2CC)Sc2ccccc21 assay_metric=growth recorded_result=-76.9
molecule=O=C1NC(=O)c2cc([N+](=O)[O-])ccc21 assay_metric=growth recorded_result=105
molecule="COc1cccc2c1C(=O)c1c(O)c3c(c(O)c1C2=O)C[C@@](O)(C(C)=O)C[C@@H]3OC1CC(N)C(O)C(C)O1 (stereo partly drawn)" assay_metric=growth recorded_result=-87.2
molecule=NNc1c2ccccc2nc2ccccc12 assay_metric=growth recorded_result=49.4
molecule=COc1c(O)cc2oc3cc(O)c(CC=C(C)C)c(O)c3c(=O)c2c1CC=C(C)C assay_metric=growth recorded_result=70.1
molecule="O=c1ccn(C2CC(O)C(COC(c3ccccc3)(c3ccccc3)c3ccccc3)O2)c(=O)[nH]1 (stereo not drawn)" assay_metric=growth recorded_result=76.1
molecule=CCC(C)(C)c1cc(O)c(C(C)(C)CC)cc1O assay_metric=growth recorded_result=27.7
molecule=COc1ccc(CC(=O)c2ccc(O)cc2O)cc1 assay_metric=growth recorded_result=115
molecule=CC[N+](CC)=c1ccc2nc3c(cc(N)c4ccccc43)oc-2c1 assay_metric=growth recorded_result=-82.2
molecule="OC(CN1CCCC2CCCCC21)c1cc2ccccc2c2ccccc12 (stereo not drawn)" assay_metric=growth recorded_result=32
molecule=CCCCCCCCCCSC(=N)N assay_metric=growth recorded_result=30
